target: hDRD2 (Homo sapiens, UniProt P14416); assay: cell-based; design: host or cells: 'Cells expressing hDRD2'; details: read-out: hDRD2 %Emax ± SEM;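 further: agonist activity at human DRD2 in DRD2-expressing cells, read as intracellular calcium mobilization with a FLIPR Calcium 4 fluorescent dye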
Sequence (P14416 whole entry): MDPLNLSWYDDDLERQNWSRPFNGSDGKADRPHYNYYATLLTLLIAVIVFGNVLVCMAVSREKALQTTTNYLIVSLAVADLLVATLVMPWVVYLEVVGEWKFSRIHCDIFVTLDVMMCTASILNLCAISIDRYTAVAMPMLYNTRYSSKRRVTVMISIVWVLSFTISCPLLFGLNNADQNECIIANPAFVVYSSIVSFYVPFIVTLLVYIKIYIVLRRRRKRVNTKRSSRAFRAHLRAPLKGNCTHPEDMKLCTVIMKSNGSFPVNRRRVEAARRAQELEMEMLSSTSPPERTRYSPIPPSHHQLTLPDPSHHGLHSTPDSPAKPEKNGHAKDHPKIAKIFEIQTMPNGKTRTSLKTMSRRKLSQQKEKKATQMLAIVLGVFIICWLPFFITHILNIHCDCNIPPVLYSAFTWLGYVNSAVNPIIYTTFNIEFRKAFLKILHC
Bridge positions count the residues as written; N and C are the ends. Square brackets hold non-standard residues; d marks the D form. Peptide text beside a SMILES is read from it. * marks the point of attachment. X2 = CN1C[C@H](CSCC(=O)*)C[C@@H]2c3cccc4[nH]cc(c34)C[C@H]21; dDab = NCC[C@@H](N)C(=O)O
Catalogue of Emax readings, one per entry.
Just the number please, in %, no unit attached.

Previously resolved entries follow.
INSERT INTO assay_data (compound, unit_name, quantitative_readout) VALUES
  ('CC(=O)N(CCCNC(CN[C@@H]1CCCCNC(=O)[C@H](Cc2ccc(F)cc2)NC(=O)[C@H]([C@@H](C)O)NC(=O)[C@H](CCCCN)NC(=O)[C@@H](Cc2c[nH]c3ccccc23)NC(=O)[C@H](Cc2ccccc2)NC(=O)[C@H](Cc2ccccc2)NC(=O)[C@H](CCCNC(=N)N)NC1=O)Cc1ccc(O)cc1)C[C@@H]1C[C@@H]2c3cccc4[nH]cc(c34)C[C@H]2N(C)C1 (single isomer, unassigned) [Compound 28A]', '%', 79.7),
  ('C[C@@H](O)[C@@H]1NC(=O)[C@H](CCCCN)NC(=O)[C@@H](Cc2c[nH]c3ccccc23)NC(=O)[C@H](Cc2ccccc2)NC(=O)[C@H](Cc2ccccc2)NC(=O)[C@H](CCCNC(=N)N)NC(=O)[C@H](NCCSC[C@@H]2C[C@@H]3c4cccc5[nH]cc(c45)C[C@H]3N(C)C2)CCCCNC(=O)[C@H](Cc2ccccc2)NC1=O', '%', 93.7),
  ('C[C@@H](O)[C@@H]1NC(=O)[C@H](CCCCN)NC(=O)[C@@H](Cc2c[nH]c3ccccc23)NC(=O)[C@H](Cc2ccccc2)NC(=O)[C@H](Cc2ccccc2)NC(=O)[C@H](CCCNC(=N)N)NC(=O)[C@H](NC[C@H](Cc2ccc(O)cc2)NC(=O)CS(=O)(=O)C[C@@H]2C[C@@H]3c4cccc5[nH]cc(c45)C[C@H]3N(C)C2)CCCCNC(=O)[C@H](Cc2ccc(F)cc2)NC1=O', '%', 90.7);

Query: Give the measured Emax for `C[C@@H](O)[C@@H]1NC(=O)[C@H](CCCCN)NC(=O)[C@@H](Cc2c[nH]c3ccccc23)NC(=O)[C@H](Cc2ccncc2)NC(=O)[C@H](Cc2ccccc2)NC(=O)[C@H](CCCNC(=N)N)NC(=O)[C@H](NCCS(=O)(=O)C[C@@H]2C[C@@H]3c4cccc5[nH]cc(c45)C[C@H]3N(C)C2)CCCCNC(=O)[C@H](Cc2ccc(O)cc2)NC1=O`
Response: 102

Query: Answer with reported Emax of `C[C@@H](O)[C@@H]1NC(=O)[C@H](CCCCN)NC(=O)[C@@H](Cc2c[nH]c3ccccc23)NC(=O)[C@H](Cc2ccncc2)NC(=O)[C@H](Cc2ccccc2)NC(=O)[C@H](CCCNC(=N)N)NC(=O)[C@H](NCC[S@@+]([O-])C[C@@H]2C[C@@H]3c4cccc5[nH]cc(c45)C[C@H]3N(C)C2)CCCCNC(=O)[C@H](Cc2ccc(O)cc2)NC1=O`
Response: 99.8

Query: Return Emax (reported value) for this compound: C[C@@H](O)[C@@H]1NC(=O)[C@H](CCCCN)NC(=O)[C@@H](Cc2c[nH]c3ccccc23)NC(=O)[C@H](Cc2ccccc2)NC(=O)[C@H](Cc2ccccc2)NC(=O)[C@H](CCCNC(=N)N)NC(=O)[C@H](NC(=O)[C@H](CCCCNC(=O)CSC[C@@H]2C[C@@H]3c4cccc5[nH]cc(c45)C[C@H]3N(C)C2)NC(=O)CSC[C@@H]2C[C@@H]3c4cccc5[nH]cc(c45)C[C@H]3N(C)C2)CCNC(=O)[C@H](Cc2ccccc2)NC1=O [Reference Compound C, reference compound] (X2-K(X2)[dDab]RFF[dW]KTF; lactam 2-C (inferred))
Response: 101
